Test summary: protein stability index of a GFP-peptide fusion (yeast GPS) (PSI 1-4); higher = more stable; sorted into four equal gates, so the index is relative within each strain
Assay conditions: ubr1∆
Measurement name: protein stability index
Just the number, please, no unit after it.

Entry LNELETLIKKKQDEKKS [SMC2] — recorded protein stability index = 2.91

Entry LDAKNKVFVPPKSKSLP [RPO31] — recorded protein stability index = 2.72

Entry NEKEQLSFINPKTGKVE [SEC65] — recorded protein stability index = 2.99

Entry ALNDVYLDADVAKLANW [YML031W/NDC1] — recorded protein stability index = 3.73

Entry STEEIEYIELEYRDLYT [YMR129W/POM152] — recorded protein stability index = 2.72

Entry SVGTDPMPIITFLSEWG [RPB2] — recorded protein stability index = 2.22

Entry LYQDMAARHRARFRSIH [RPL20A] — recorded protein stability index = 2.95

Entry SYQKLLKNYVLNELHPT [PRP8] — recorded protein stability index = 1.75

Entry AFSYEQAQLRIDDKTQN [DIS3] — recorded protein stability index = 2.25

Entry LQFKSIREIDVAGGKKA [RPS7A] — recorded protein stability index = 1.21

Entry KPSLVDVHLLESKVYHK [RPN6] — recorded protein stability index = 2.05

Entry IGNLITRQFEGRSNEIV [PRP8] — recorded protein stability index = 2.7

Entry LQRKDYTSIVQCCEFMT [YML103C/NUP188] — recorded protein stability index = 1.9

Entry IRVLFKENGQLIGAATK [SEC65] — recorded protein stability index = 2.38

Entry FDFIKDNETPSKKTSPK [YOR098C/NUP1] — recorded protein stability index = 2.96

Entry SGGSVNLYHVTEDGWIY [PRE2] — recorded protein stability index = 3.04

Entry KKINAKEKLIGWYHSGP [RPN8] — recorded protein stability index = 3.13

Entry FRGIIRSQDVRSTDRDR [CSL4] — recorded protein stability index = 2.9

Entry KTDTKVSFRTHNSHLSL [SRP21] — recorded protein stability index = 3.15

Entry KGDLRRGFIKSEGSGSS [RPC53] — recorded protein stability index = 3.48

Entry AASALDEKEKQLAVANE [SIR4] — recorded protein stability index = 3.36

Entry LALINYGRQELADDLIT [RPN2] — recorded protein stability index = 1.49

Entry RKMTTDDDINWQELARS [RPT5] — recorded protein stability index = 3

Entry LSSGENRYAFSQPTNST [SMC4] — recorded protein stability index = 2.85

Entry QSVYNDEKLKTEKLKND [SRB8] — recorded protein stability index = 3.36

---

Test summary: protein stability index of a GFP-peptide fusion (yeast GPS) (PSI 1-4); higher = more stable; sorted into four equal gates, so the index is relative within each strain
Assay conditions: pdr5∆
For each record, write down the corresponding protein stability index.
Just the number, please, no unit after it.

Entry TSANGIVQFTYGGDGLD [RPO31] — recorded protein stability index = 2.77

Entry LINGHRAPQQSVLQLFQ [SMC2] — recorded protein stability index = 2.48

Entry PQDILSKLYLLLARVFE [SNF11] — recorded protein stability index = 2.37

Entry YIELLPNADDIRDSIPQ [DIS3] — recorded protein stability index = 2.85

Entry KVWLDPNETSEIAQANS [RPL19A] — recorded protein stability index = 3.69

Entry NKKSEQALDISKKGKPT [SRP72] — recorded protein stability index = 3.02

Entry DVECIKAKSHFTNIISR [YJL039C/NUP192] — recorded protein stability index = 3.1

Entry FQFFPKELDALQEKEQL [ISW2] — recorded protein stability index = 2.97

Entry ADAGIELVDMAGAGEAN [MTR3] — recorded protein stability index = 2.69

Entry CLFTKCLEDPEKPFNEN [POP4] — recorded protein stability index = 3.02

Entry AGLGKTNELWARLAILK [YGR119C/NUP57] — recorded protein stability index = 1.67

Entry NYTKDNEYYPMCEQALS [YCS4] — recorded protein stability index = 2.61

Entry SNEEQRNLDSATLKEIK [SMC3] — recorded protein stability index = 3.21

Entry ANGTVVSFIKNGEEIVG [MTR3] — recorded protein stability index = 1.6

Entry NKENDNVPSTKFNAAPE [SNF12] — recorded protein stability index = 3.36

Entry VTIWYRAPELLLGARHY [SSN3] — recorded protein stability index = 1.85

Entry GFDIQKSCEPVSISTSV [SIR4] — recorded protein stability index = 1.73

Entry NEMLLKRVTKVKRLLFT [MTW1] — recorded protein stability index = 1.56

Entry GSKSASKQTPQPKAPRA [ISW2] — recorded protein stability index = 3.17

Entry SHERFFLSQGLHVVITL [CSN12] — recorded protein stability index = 2.94

Entry TRAQYLAFAKLVHSEYL [SRP68] — recorded protein stability index = 1.87

Entry LGSLTVEDYLSSVTSDS [RPC82] — recorded protein stability index = 3.02

Entry NSNTNLNSLSPQAILAK [SWI1] — recorded protein stability index = 1.93

Entry SQDTKVICSVTGPIEPK [RRP46] — recorded protein stability index = 1.72

Entry KLHVAAKLPGHKSLIRS [YGL100W/SEH1] — recorded protein stability index = 2.03

Entry RSLVREIAGLSPYERRL [RPL36A] — recorded protein stability index = 3.5

Entry IFTEKIYKSIFNVVDVG [YJL039C/NUP192] — recorded protein stability index = 1.71
